biological target: Importin subunit beta-1 (Homo sapiens) (UniProt Q14974); assay: qHTS Assay for Inhibitors of Rango (Ran-regulated importin-beta cargo) - Importin beta complex formation; conditions: Rango CFP/YFP FRET sensor + importin beta, 45 min; series mostly up to 92.2 µM; note: nearly all actives have a fitted effect of over 15% in size
Sequence (Q14974 whole entry, looked up): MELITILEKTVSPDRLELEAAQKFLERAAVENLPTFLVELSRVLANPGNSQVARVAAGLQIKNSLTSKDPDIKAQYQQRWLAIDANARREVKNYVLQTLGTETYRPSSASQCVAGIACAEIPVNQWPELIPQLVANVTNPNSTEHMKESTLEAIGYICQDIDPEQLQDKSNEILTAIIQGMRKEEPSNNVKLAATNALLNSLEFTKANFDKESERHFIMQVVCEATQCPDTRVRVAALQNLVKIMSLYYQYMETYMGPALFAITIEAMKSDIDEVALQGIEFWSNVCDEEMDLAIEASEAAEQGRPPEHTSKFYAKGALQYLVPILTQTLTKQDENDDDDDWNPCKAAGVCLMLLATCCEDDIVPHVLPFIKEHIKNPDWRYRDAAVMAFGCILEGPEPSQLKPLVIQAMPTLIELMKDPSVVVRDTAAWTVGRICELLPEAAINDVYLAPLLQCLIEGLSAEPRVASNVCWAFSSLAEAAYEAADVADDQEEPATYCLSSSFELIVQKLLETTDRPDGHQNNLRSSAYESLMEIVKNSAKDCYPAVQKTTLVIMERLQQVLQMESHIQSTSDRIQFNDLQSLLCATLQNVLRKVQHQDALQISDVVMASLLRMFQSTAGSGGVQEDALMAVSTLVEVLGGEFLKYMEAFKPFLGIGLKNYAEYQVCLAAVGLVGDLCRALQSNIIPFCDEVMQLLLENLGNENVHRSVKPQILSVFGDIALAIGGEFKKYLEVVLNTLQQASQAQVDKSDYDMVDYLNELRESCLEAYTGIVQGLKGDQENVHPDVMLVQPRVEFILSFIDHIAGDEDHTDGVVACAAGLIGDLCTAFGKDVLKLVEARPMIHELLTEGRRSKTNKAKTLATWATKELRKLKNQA
Screen size: about 340,000 compounds; about 100 (0.029%) were called active. Another 8% or so got no clear call; they are omitted. The full list was thinned out, with actives kept by preference.
propertyName: outcome

Past entries and their recorded results:
CC1(C)C(=O)CCC2(C)C1=CCC1C2C(=O)CC2(C)C1CCC2(O)C(=O)CO (configuration not stated) = inactive
Cc1nn(-c2ncccn2)c2c1C(=O)CC(C)(C)C2Br (configuration not stated) = inactive
COc1ccc(Nc2ccc3ccccc3c2)cc1 = inactive
Nc1ccc2c(c1)C(=Cc1cccnc1)c1ccccc1-2 = inactive
CCOc1cc(C=NNC(=O)CCCC(=O)NN=Cc2ccc(O)c(OCC)c2)ccc1O = inactive

Give measured outcome for every item shown.
1. CCC1(C)COC(c2ccc(OC)c(OC)c2)OC1 (configuration not stated)
2. CN1CCC(N(C)C(=O)c2ccc(Cl)c(S(=O)(=O)Nc3ccc(Cl)cc3)c2)CC1
3. CCC(C)C1(C2CCCC2)NC(=O)NC1=O (configuration not stated)

inactive
inactive
inactive

Give measured outcome for every item shown.
1. O=C(c1ccc2c(c1)C(=O)N(Cc1ccncc1)C2=O)N1CCN(S(=O)(=O)c2ccc(OC(F)(F)F)cc2)CC1
2. O=C(NCCc1ccccc1)c1c[nH]c2ccc(F)cc2c1=O
3. O=C(Nc1c(Br)cc2c(c1Br)Cc1cc([N+](=O)[O-])ccc1-2)C(Cl)Cl
4. O=C(Nc1ccc(S(=O)(=O)N2CCOCC2)cc1)C1CCN(S(=O)(=O)c2ccc(Cl)cc2)CC1
5. O=C1C(Cl)=C(Oc2ccccc2)C(=O)c2ccccc21

1: inactive; 2: inactive; 3: inactive; 4: inactive; 5: inactive

Give measured outcome for every item shown.
1. O=C(NN=Cc1ccccc1)c1ccccc1
2. COc1ccc(S(=O)(=O)N2CCc3ccccc32)cc1C(=O)Nc1cc(S(C)(=O)=O)ccc1Cl
3. COc1ccc(CCNC(=O)c2ccc(NC(=O)CC3SC(N4CCCCC4)=NC3=O)cc2)cc1OC (configuration not stated)
4. COc1cc2[nH]c(O)c(C=O)c2cc1OC
5. COC(=O)Cc1c(-c2[nH]c3ccccc3c2CC(=O)OC)[nH]c2ccccc12
6. COc1ccc(-c2nnc(-c3ccc4ccccc4c3)o2)cc1
7. Nc1cc2c(cc1Br)-c1ccc(F)cc1C2=O

["inactive", "inactive", "inactive", "inactive", "inactive", "inactive", "inactive"]

Give measured outcome for every item shown.
1. O=C1NC(=O)C(CCc2ccccc2)(c2ccccc2)N1 (configuration not stated)
2. CC(C)C[C@H]1CN([C@@H](CC(C)C)CN2CCC[C@@H]2CN2C(=O)C(=O)NC[C@@H]2Cc2ccccc2)C(=O)C(=O)N1CCc1ccccc1

1: inactive; 2: inactive
